B1: TMEM40 (parent)
chain: YGETDFHKQDGKAGLFSQEQYERN

- Variants of: B1
- experiment: protein stability index of a GFP-peptide fusion (GPS, HEK-293T) (PSI 1-6); higher = more stable;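 also: lentivirally expressed fusions sorted by FACS into six bins by GFP to DsRed ratio, PSI derived from sequencing read proportions per bin multiplied by bin number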
- test context: c terminus: a fixed tail appended
measured attribute: protein stability index
# print the numeric value only

YGETNFHKQDGKAGLFSQEQYERN
3.24
YGMTDFHKQDGKAGLFSQEQYERN
3.75
YGETDFHKQDGKAGTFSQEQYERN
4.55
YGETDFHKQDGKAALFSQEQYERN
4.02

## Task Query: protein stability index; subject: YGETDFHKQDGSAGLFSQEQYERN
## Result 4.86

## Task For YGITDFHKQDGKAGLFSQEQYERN then?
## Result 3.9

## Task For YGETDFHKQDGKAGLFGQEQYERN then?
## Result 3.94

## Task For YGETDFHKQDGKAGLFSQEQYERQ then?
## Result 4.09

## Task For YGETDFSKQDGKAGLFSQEQYERN then?
## Result 4.67

## Task For YGETDFHKQDGKAGLFWQEQYERN then?
## Result 1.97

## Task For YGETDFHKQDGKCGLFSQEQYERN then?
## Result 3.28

## Task For YGETDFHKQDEKAGLFSQEQYERN then?
## Result 4.68

## Task For YGETDLHKQDGKAGLFSQEQYERN then?
## Result 4.98

FYI, the data here is from the supplement of paper PMC10567573.
